Biological target: T1, cSNK:BSA conjugate (bovine, head-to-tail cyclized; conjugated to BSA carrier)
T1 construct: also called BSA-cSNK
T1 sequence (P02769 25-607 limits assumed): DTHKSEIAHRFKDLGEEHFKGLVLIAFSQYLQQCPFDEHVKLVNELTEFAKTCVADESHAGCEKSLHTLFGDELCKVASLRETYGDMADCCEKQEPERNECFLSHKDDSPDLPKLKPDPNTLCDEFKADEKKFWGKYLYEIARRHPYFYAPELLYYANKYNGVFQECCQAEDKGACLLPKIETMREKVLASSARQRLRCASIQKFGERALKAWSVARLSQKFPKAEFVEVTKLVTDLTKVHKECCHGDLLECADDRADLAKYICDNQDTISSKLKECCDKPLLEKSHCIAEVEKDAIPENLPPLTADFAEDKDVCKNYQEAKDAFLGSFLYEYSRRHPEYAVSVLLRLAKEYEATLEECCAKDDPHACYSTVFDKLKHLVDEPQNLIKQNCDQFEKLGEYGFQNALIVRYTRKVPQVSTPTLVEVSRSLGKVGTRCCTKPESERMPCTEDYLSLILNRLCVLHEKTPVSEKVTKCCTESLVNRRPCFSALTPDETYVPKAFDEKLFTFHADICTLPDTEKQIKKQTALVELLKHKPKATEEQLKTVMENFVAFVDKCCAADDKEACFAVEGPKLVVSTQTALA
Assay: BLI 2:1 fit, site 1; 25 nM row
endpoint: kon (M⁻¹ s⁻¹)
API: value field is a number in M⁻¹ s⁻¹; no unit string.

Query kon for murine monoclonal antibody 5E3 (antibody, V domains shown, mouse antibody of the 5E3 hybridoma; also called murine 5E3; m5E3) VH: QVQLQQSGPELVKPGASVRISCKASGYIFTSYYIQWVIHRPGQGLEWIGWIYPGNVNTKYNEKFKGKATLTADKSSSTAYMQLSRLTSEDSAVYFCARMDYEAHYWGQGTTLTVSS VL: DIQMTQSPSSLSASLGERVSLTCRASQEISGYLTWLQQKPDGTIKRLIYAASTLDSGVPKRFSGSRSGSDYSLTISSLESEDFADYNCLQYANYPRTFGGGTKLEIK 1.29e+06

Name the recorded kon of the item hu5E3-IgG4 (antibody, V domains shown, human IgG4/kappa; also called humanized 5E3 IgG4) VH: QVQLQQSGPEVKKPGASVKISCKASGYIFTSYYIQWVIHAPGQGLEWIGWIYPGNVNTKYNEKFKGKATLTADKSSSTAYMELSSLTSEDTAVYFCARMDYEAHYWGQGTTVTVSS VL: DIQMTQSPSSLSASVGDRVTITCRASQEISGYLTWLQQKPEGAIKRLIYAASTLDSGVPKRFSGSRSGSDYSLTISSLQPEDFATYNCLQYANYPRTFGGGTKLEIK in your answer. 868000
